Test: recombinant UMI read abundance after kanamycin selection (control-corrected) (log10(CPM+1)); higher = more efficient recombination; extreme values may be limits of the assay; sequences stand for … in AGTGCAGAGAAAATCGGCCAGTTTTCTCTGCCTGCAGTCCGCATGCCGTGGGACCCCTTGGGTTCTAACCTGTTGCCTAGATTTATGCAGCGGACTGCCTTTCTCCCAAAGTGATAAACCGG…AGGTTGGTTTCACT; site = the 11-nt donor;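 also: IS621 bridge recombinase in Escherichia coli cells against a fixed T5 target plasmid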
The following sequences are listed with their measured recombinant UMI read abundance (log10) values.

{"columns": ["sequence_entry", "recombinant UMI read abundance (log10)"],
 "data": [
  ["AGATTCTCATGGACCGGTTTTCCCGGTAATCCGTATTTGTG (site AGATTCTCTCA)", 2.63],
  ["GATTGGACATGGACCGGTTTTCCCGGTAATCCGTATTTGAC (site GATAGGACTGT)", 0.353],
  ["CGATCGACATGGACCGGTTTTCCCGGTAATCCGTATTTGTA (site CGATCGACTGA)", 0],
  ["GTAAATCCATGGACCGGTTTTCCCGGTAATCCGTATTTGGG (site GTAAATCCTCC)", 0.325],
  ["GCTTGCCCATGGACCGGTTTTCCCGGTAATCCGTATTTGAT (site GCTTGCACTAT)", 0.00776],
  ["ACATGTACATGGACCGGTTTTCCCGGTAATCCGTATTTGTG (site ACATATACTCA)", 0.616],
  ["TGCCTAGCATGGACCGGTTTTCCCGGTAATCCGTATTTGTT (site CGCCTAGCTAA)", 0.0169],
  ["TTTGCCGCATGGACCGGTTTTCCCGGTAATCCGTATTTGCT (site TTTGCAGCTAG)", 0.0102],
  ["GGTCTAACATGGACCGGTTTTCCCGGTAATCCGTATTTGTA (site GGTCAAACTTA)", 0.0026],
  ["ACTGTGTCATGGACCGGTTTTCCCGGTAATCCGTATTTGAC (site ACTGTGTCTGT)", 0],
  ["ACTAGCACATGGACCGGTTTTCCCGGTAATCCGTATTTGAG (site ACTAGTACTCT)", 0.517],
  ["GCTACTGCATGGACCGGTTTTCCCGGTAATCCGTATTTGCG (site GCTACTGCTAG)", 0.345],
  ["GTGCTCACATGGACCGGTTTTCCCGGTAATCCGTATTTGAT (site GGGCTCACTAT)", 0.0156],
  ["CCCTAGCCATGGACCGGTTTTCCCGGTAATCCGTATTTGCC (site CGCTAGCCTGG)", 0],
  ["ATCCATACATGGACCGGTTTTCCCGGTAATCCGTATTTGAC (site ATCTATACTGT)", 0],
  ["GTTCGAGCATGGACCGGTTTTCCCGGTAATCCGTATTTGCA (site ATTCGAGCTTG)", 1.31],
  ["TGTTCCCCATGGACCGGTTTTCCCGGTAATCCGTATTTGTT (site TGTTCCCCTTA)", 0.0133],
  ["GACAAAGCATGGACCGGTTTTCCCGGTAATCCGTATTTGGT (site GACAAACCTAC)", 0],
  ["CCACTTGCATGGACCGGTTTTCCCGGTAATCCGTATTTGTG (site CCACTTGCTCA)", 0.358],
  ["ACTAGGACATGGACCGGTTTTCCCGGTAATCCGTATTTGCT (site ACTAGGACTAG)", 2.36],
  ["GATACTGCATGGACCGGTTTTCCCGGTAATCCGTATTTGCC (site GGTACTGCTGG)", 1.73],
  ["ATACAAGCATGGACCGGTTTTCCCGGTAATCCGTATTTGAC (site ATACAAGCTGT)", 2.38],
  ["TATTGGACATGGACCGGTTTTCCCGGTAATCCGTATTTGAC (site CATTGGACTGT)", 0.701],
  ["CGATAATCATGGACCGGTTTTCCCGGTAATCCGTATTTGCT (site CGATTATCTAG)", 0.415],
  ["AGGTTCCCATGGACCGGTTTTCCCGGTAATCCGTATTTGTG (site AGGTACCCTCA)", 0.00814]
]}
